All figures here come from patent US20230265094A1.

For each of the compounds below, state its log10 of EC50.
# test-system: RIPK1 (Homo sapiens, UniProt Q13546)
# Construct: recombinant GST-RIPK1 kinase domain (residues 1-327) enzyme produced from baculovirus-transfected Sf21 cells; host or cells: baculovirus-transfected Sf21 insect cells
# assay-protocol: RIPK1-ADP-Glo enzymatic assay
# Format: biochemical
# condition-notes: ADP-Glo luminescent ADP detection; 25 nM GST-RIPK1 kinase domain (residues 1-327), 300 μM ATP, dephosphorylated-MBP substrate; 30 min pre-incubation, 150 min reaction
Where a name gives a salt, the structure may show the parent alone.
Hi team, quick reminder: these entries are log10 of EC50 (µM).

Consider the following illustrative entries.
compound="O=C(N1CC(Oc2ccccc2)C1)N1N=CC[C@H]1c1ccccc1 (single isomer, unassigned) [Example 2.5]" reported_measurement=-3.30
compound="N#Cc1cc(CC2CN(C(=O)N3N=CC[C@H]3c3cc(F)cc(F)c3)C2)ccn1 [Example 2.46]" reported_measurement=-1.33
compound="O=C(N1CC2(CCCOC2)C1)N1N=CC[C@H]1c1cc(F)cc(F)c1 [Example 1.53]" reported_measurement=-0.28
compound="O=C(N1CC(Oc2ccccc2)C1)N1N=CC[C@H]1C12CCC(CC1)C2 [Example 2.16]" reported_measurement=-1.03
compound="C[C@@H]1[C@@H](Oc2ccnc(C#N)c2)CN1C(=O)N1N=CC[C@H]1c1cc(F)cc(F)c1 [Example 2.37]" reported_measurement=-2.18

For the 7 compounds below, give their log10 of EC50 values.
1. Cn1c(OC2CN(C(=O)N3N=CC[C@H]3c3cc(F)cc(F)c3)C2)nc2ccccc21 [Example 3.2, TFA salt]
2. O=C(N1CC(O)(c2ccccc2)C1)N1N=CC[C@H]1c1ccc(Cl)cc1 [Example 2.8]
3. Cc1ncnc(OC2CN(C(=O)N3N=CC[C@H]3c3cc(F)cc(F)c3)C2)c1C [Example 3.3, TFA salt]
4. CC(C)C1(O)CN(C(=O)N2N=CC[C@H]2c2ccc(Cl)cc2)C1 [Example 2.7]
5. CC1(F)CN(C(=O)N2N=CC[C@H]2c2cc(F)cc(F)c2)C1 [Example 1.29]
6. O=C(N1CC(Oc2ccccn2)C1)N1N=CC[C@H]1c1cc(F)cc(F)c1 [Example 1.58]
7. C[C@H]1[C@@H](Oc2ccc(F)cc2)CN1C(=O)N1N=CC[C@H]1c1cncc(F)c1 [Example 2.18]

**A:**
-1.01
0.39
-1.12
0.71
-1.21
0.14
-2.00

Batch lookup, log10 of EC50 per entry.
1. CC1CN(C(=O)N2N=CC[C@H]2c2cc(F)cc(F)c2)C1 [Example 1.40]
2. O=C(N1CC(Oc2ccccc2)C1)N1N=CC[C@H]1c1ccc(Cl)cc1 [Example 2.6]

**A:**
1. -1.59
2. -2.02

Give log10 of EC50 for all compounds that follow.
1. N#Cc1cc(OC2CN(C(=O)N3N=CCC3c3cc(F)cc(F)c3)C2)ncn1 (racemic) [Example 1.5, TFA salt]
2. O=C(N1CC(F)(F)C1)N1N=CC[C@H]1c1cc(F)cc(F)c1 [Example 1.32]
3. O=C(N1CC(Cl)C1)N1N=CC[C@H]1c1cc(F)cc(F)c1 [Example 1.33]

**A:**
1. -0.85
2. -1.76
3. -1.74

----------
# test-system: RIPK1 (Homo sapiens)
# Construct: recombinant GST-RIPK1 kinase domain (residues 1-327) enzyme produced from baculovirus-transfected Sf21 cells
# assay-protocol: RIPK1-ADP-Glo enzymatic assay
# condition-notes: ADP-Glo luminescent ADP detection; 25 nM GST-RIPK1 kinase domain (residues 1-327), 300 μM ATP, dephosphorylated-MBP substrate; 30 min pre-incubation, 150 min reaction
Structures can show the parent of a compound that is named as a salt.
result-type: EC50 (nM)
One number for each entry, in nM.

The following compounds have reported results that may help.
compound="C[C@@H]1[C@H](Oc2ccccc2)CN1C(=O)N1N=CC[C@H]1c1cc(F)cc(F)c1 (racemic) [Example 1.11, TFA salt]" reported_measurement=11.8
compound="O=C(N1CC2(C1)CN(c1ccccn1)C2)N1N=CC[C@H]1c1cc(F)cc(F)c1 [Example 1.19, TFA salt]" reported_measurement=3450
compound=O=C(N1CC(Oc2ccc(F)cc2)C1)N1N=CC[C@H]1c1cc(F)cc(F)c1 reported_measurement=7
compound=O=C(N1CC(Oc2ccccc2)C1)N1N=CC[C@@H]1c1cccnc1 reported_measurement=95.6
compound="C[C@H]1[C@@H](Oc2ccccc2)CN1C(=O)N1N=CC[C@H]1c1cc(F)cc(F)c1 (single isomer, unassigned) [Example 1.13, TFA salt]" reported_measurement=7.6

**Q:** Consider the compound O=C(N1CC(O)(C(F)(F)F)C1)N1N=CC[C@H]1c1ccc(Cl)cc1 and give its measured EC50.
**A:** 578

----------
# test-system: RIPK1 (Homo sapiens)
# Construct: recombinant GST-RIPK1 kinase domain (residues 1-327) enzyme produced from baculovirus-transfected Sf21 cells
# Sequence (Q13546 1-327): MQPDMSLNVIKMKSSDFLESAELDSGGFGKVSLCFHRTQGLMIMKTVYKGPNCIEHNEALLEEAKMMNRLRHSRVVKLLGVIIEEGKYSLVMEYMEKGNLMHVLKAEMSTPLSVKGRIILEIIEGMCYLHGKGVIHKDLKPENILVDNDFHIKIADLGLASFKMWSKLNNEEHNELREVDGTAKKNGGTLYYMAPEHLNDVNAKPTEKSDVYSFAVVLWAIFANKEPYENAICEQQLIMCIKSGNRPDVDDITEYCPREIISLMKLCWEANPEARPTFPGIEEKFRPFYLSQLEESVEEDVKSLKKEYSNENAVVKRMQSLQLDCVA
# assay-protocol: RIPK1-ADP-Glo enzymatic assay
# condition-notes: ADP-Glo luminescent ADP detection; 25 nM GST-RIPK1 kinase domain (residues 1-327), 300 μM ATP, dephosphorylated-MBP substrate; 30 min pre-incubation, 150 min reaction
Counter-ions that a name gives are not always drawn.
result-type: EC50 (nM)
Answers are plain numbers, in nM.

Below, 5 compounds whose answers are already recorded.
compound="CSc1nc(C)cc(OC2CN(C(=O)N3N=CC[C@H]3c3cc(F)cc(F)c3)C2)n1 [Example 3.4, TFA salt]" test_system="RIPK1 (Homo sapiens)" reported_measurement=38.1
compound=N#CC1(c2ccccc2)CN(C(=O)N2N=CC[C@H]2c2cc(F)cc(F)c2)C1 test_system="RIPK1 (Homo sapiens)" reported_measurement=648
compound=Cc1ccccc1OC1CN(C(=O)N2N=CC[C@H]2c2cc(F)cc(F)c2)C1 test_system="RIPK1 (Homo sapiens)" reported_measurement=11.7
compound=COC1(C)CN(C(=O)N2N=CC[C@H]2c2cc(F)cc(F)c2)C1 test_system="RIPK1 (Homo sapiens)" reported_measurement=98.5
compound="CC(c1ccccc1)C1CN(C(=O)N2N=CC[C@H]2c2cc(F)cc(F)c2)C1 (single isomer, unassigned) [Example 2.43]" test_system="RIPK1 (Homo sapiens)" reported_measurement=46.7

List reported EC50 for each of these compounds:
1. C[C@@H]1[C@H](Oc2ccc(F)cc2)CN1C(=O)N1N=CC[C@H]1c1ccc(Cl)cc1
2. Cc1ncc([C@@H]2CC=NN2C(=O)N2C[C@H](Oc3ccc(F)cc3)[C@@H]2C)cc1F
3. N#Cc1cc(OC2CN(C(=O)N3N=CC[C@H]3c3cc(F)cc(F)c3)C2)ccn1 [Example 3.1, TFA Salt]
4. O=C(N1CC2(C1)CN(c1cnccn1)C2)N1N=CC[C@H]1c1cc(F)cc(F)c1
5. O=C(N1CC(c2cccnc2)C1)N1N=CC[C@H]1c1cc(F)cc(F)c1 [Example 1.42, TFA salt]
6. O=C(N1CC(Oc2ccccc2)C1)N1N=CC[C@H]1c1cccnc1
7. O=C(N1CC(O)(c2ccccc2)C1)N1N=CC[C@H]1c1cc(F)cc(F)c1
8. CC(C)OC1CN(C(=O)N2N=CC[C@H]2c2ccc(Cl)cc2)C1

**A:**
1: 25.7; 2: 12.3; 3: 6.6; 4: 5150; 5: 28.6; 6: 20.5; 7: 811; 8: 10.6

Answer for every listed entry: what is its EC50? The entries follow.
1. O=C(N1CC(OCc2ncc(Br)s2)C1)N1N=CC[C@H]1c1cc(F)cc(F)c1
2. O=C(N1CC2(CCCO2)C1)N1N=CC[C@H]1c1cc(F)cc(F)c1
3. COC1CN(C(=O)N2N=CC[C@H]2c2cc(F)cc(F)c2)C1

**A:**
[23.9, 47.4, 11]

I have 8 compounds here; please give me EC50 for each one.
1. CC1(Oc2ccccc2)CN(C(=O)N2N=CCC2c2cc(F)cc(F)c2)C1 (racemic) [Example 1.2, TFA salt]
2. C[C@@H]1[C@@H](Oc2ccc(F)cc2)CN1C(=O)N1N=CC[C@H]1c1ccc(Cl)cc1
3. CC1(Oc2ccc(F)cc2)CN(C(=O)N2N=CC[C@H]2c2cncc(C#N)c2)C1
4. O=C(N1CC(OC2CCC2)C1)N1N=CC[C@H]1c1cc(F)cc(F)c1
5. O=C(N1CCC1c1ccccc1F)N1N=CC[C@H]1c1cc(F)cc(F)c1 (mixture of isomers)
6. O=C(N1CC(Oc2nc3ccncc3s2)C1)N1N=CC[C@H]1c1cc(F)cc(F)c1 [Example 3.6, TFA salt]
7. O=C(N1CC(F)C1)N1N=CC[C@H]1c1cc(F)cc(F)c1
8. O=C(N1CC(Oc2ncc(Cn3cccn3)s2)C1)N1N=CC[C@H]1c1cc(F)cc(F)c1 [Example 3.8, TFA salt]

**A:**
[9.7, 5.9, 25.5, 92.7, 27.6, 18.2, 38.4, 105]

Take each entry in turn and give its EC50.
1. O=C(N1CC(Oc2ccccc2)C1)N1N=CC[C@@H]1c1ccccc1 (single isomer, unassigned)
2. N#Cc1cccc(OC2CN(C(=O)N3N=CC[C@H]3c3cc(F)cc(F)c3)C2)c1

**A:**
5000
11.9

Below are some compounds; for each one, tell me its EC50.
1. COCCC1CN(C(=O)N2N=CC[C@H]2c2cc(F)cc(F)c2)C1
2. O=C(N1CC(Oc2ccncc2)C1)N1N=CC[C@H]1c1cc(F)cc(F)c1 [Example 1.8, TFA salt]
3. CC1(Oc2ccnc(C#N)c2)CN(C(=O)N2N=CC[C@H]2c2cc(F)cc(F)c2)C1
4. C[C@@H]1[C@@H](Oc2ccc(F)cc2)CN1C(=O)N1N=CC[C@H]1c1cc(F)cc(F)c1
5. O=C(N1CC(OC2CCCCC2)C1)N1N=CC[C@H]1c1cc(F)cc(F)c1

**A:**
1. 105
2. 8.7
3. 24.2
4. 7.8
5. 245

**Q:** Form: Entry = N#Cc1ccc(OC2CN(C(=O)N3N=CC[C@H]3c3cc(F)cc(F)c3)C2)cn1 | System = RIPK1 (Homo sapiens) | EC50 = ____
**A:** 26.3
